Property: melting point; scope: individual compounds
Reply numerically in °C, unit not repeated.

Cc1cc(C)c[n+](CC(=O)c2ccc(Cl)cc2)c1.[Br-]    125
Cc1cc(C)c[n+](CC(=O)c2ccc(F)cc2)c1.[Br-]    123
COc1ccc(C(=O)C[n+]2cc(C)cc(C)c2)cc1.[Br-]    108

The record that follows has no melting point shown yet.
Looking up Cc1cc(C)c[n+](CC(=O)c2ccc(Br)cc2)c1.[Br-] , I found its melting point recorded as 210
